Test system: TRPC4 (transient receptor potential cation channel C4 beta), mouse
ASSAY_METHOD_TEXT: potentiation of DAMGO EC20 TRPC4 response – cell-based, second round, Fluo-4, HEK293 TRPC4beta/mu-opioid, 1 µM, confirmation (AID 2554)
ASSAY_CONTEXT: DAMGO EC20, Fluo-4 calcium flux, at 1 µM
Calls of active or inactive are those of the source.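 How the source made its calls: active means primary screen hit whose fluorescence ratio, in both repeats, exceeds the weak agonist control mean by 3 SD; inactive means the rest.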
READOUT: potentiation

Sample answers from the record:
Clc1ccc2nc(CN3CCCc4ccccc43)cn2c1 = inactive
CCOc1cc(CNCCCN2CCOCC2)cc(Br)c1OCc1ccccc1Cl = inactive
CC1=C(C(=O)NCCN2CCN(C)CC2)C2(CCC(C)CC2)OC1=O (stereo unspecified) = inactive
Fc1cccc(Nc2c3c(nc4ccccc24)CCC3)c1 = inactive
Cc1cc(C)cc(N/C(N)=N/c2nc(C)cc(C)n2)c1 = inactive

Consider COc1ccc(/C=N/NC(=O)C2COc3ccccc3O2)cc1OC (stereo unspecified) . Its measured potentiation is inactive

Consider COc1ccccc1N(C(=O)c1snc(C(N)=O)c1N)C(C(=O)NCc1ccccc1)c1ccc(C)o1 (stereo unspecified) . Its measured potentiation is inactive

Consider `CC(C)Cc1nc(Cl)c(C#N)c2c1CCCC2` . Its measured potentiation is inactive

Consider `CNC(=O)COc1ccc2oc3c(c2c1)CCCC3` . Its measured potentiation is inactive

Consider Cc1cc(CN2CCCC(C(=O)Nc3ccc(-c4nc5ccccc5[nH]4)cc3)C2)n[nH]1 (stereo unspecified) . Its measured potentiation is inactive

Consider `CN1CCN(c2nc(-c3cccnc3)nc3scc(-c4ccccc4)c23)CC1` . Its measured potentiation is inactive

Cited source: PubChem BioAssay
